- System: ACHN renal
- assay.procedure: NCI tumour cell line growth inhibition, 48 h
metric.name: TGI

> print(dat)
                                   compound  experimental.target  observed.value
1  CCOC(=O)[C@@H]1[C@@H](c2ccccc2)N(C)O[C@@]1(c1ccccc1)C(F)(F)F           ACHN renal        > 100 µM
2  Cc1ccc(N(C=O)c2c([N+](=O)[O-])cc([N+](=O)[O-])c3c2=[N+]([O-])CN=3)cc1           ACHN renal           64 µM
3                         O=Cc1ccc2ccocc1-2           ACHN renal        > 100 µM
4  CC1OC(n2cc(C(F)(F)F)c(=O)[nH]c2=O)C=CC1=O (stereo unspecified)           ACHN renal         31.4 µM
5  CCN(CC)C1Oc2cc3c(cc2C(c2cc(OC)c(O)c(OC)c2)C1C)OCO3 (stereo unspecified)           ACHN renal        > 100 µM

Notebook: CC1(C)OCC(CO)(CO)CO1 , TGI read as > 100 µM

Notebook: C/C(=C\COP(=O)(O)OP(=O)(O)O)CCCCCCOCc1ccccc1 , TGI read as > 100 µM

Notebook: NCCCNc1nc2ccccc2c2c(=O)c3cc(F)ccc3sc12 , TGI read as 2.93 µM

Notebook: COc1cc2c(cc1OC)C(C(CCCCCC(CCC(C)C)C1NCCc3cc(OC)c(OC)cc31)CCC(C)C)NCC2 (stereo unspecified) , TGI read as 3.17 µM

Notebook: CC[C@@H](C)/C=C(C)/C=C/C(=O)c1c(O)c(-c2ccc(OC(=O)[C@@]34CC[C@@](C)(C(=O)O3)C4(C)C)cc2)cn(O)c1=O , TGI read as 11.6 µM

Notebook: Cc1ccc2c(c1)-c1c3c(nn1C)-c1ccccc1SC3O2 (stereo unspecified) , TGI read as > 100 µM

====

- Test system: IGROV1 ovarian
- assay.procedure: NCI tumour cell line growth inhibition, 48 h
metric.name: GI50

> print(dat)
                           structure.string  metric.name  observed.value
1    NC(=O)c1c(NC(=O)c2cccs2)sc2c1CCC(=O)C2         GI50         1980 nM
2  CN1CCN(CCCNC(=O)c2c3c(n4ccccc24)C(=O)c2ncccc2C3=O)CC1         GI50         1280 nM
3     CCN(CC)CCNC(=O)c1cccc2c1-c1ccccc1C2=O         GI50     > 100000 nM

Notebook: O=C(/C=C/c1ccccc1)c1cccc2ccccc12 , GI50 read as 3400 nM

Notebook: O=C(Oc1ccccc1)N(c1ccccc1)c1ccccc1 , GI50 read as 38100 nM

Notebook: Oc1ccc2c(=S)cc(-c3ccc(Br)cc3)oc2c1O , GI50 read as 2560 nM

Notebook: O=C(Nc1nc(-c2ccc(Cl)cc2)cs1)c1cc(O)c(O)c(O)c1 , GI50 read as 183000 nM

Notebook: O=C1/C(=C\c2ccc(F)cc2)CN(C(=O)c2ccccc2F)C/C1=C\c1ccc(F)cc1 , GI50 read as 1820 nM
